ASSAY SYSTEM: T1, microbial transglutaminase from Streptomyces mobaraensis (MTG) (Streptomyces mobaraensis, UniProt P81453 77-407)
T1 sequence (looked up): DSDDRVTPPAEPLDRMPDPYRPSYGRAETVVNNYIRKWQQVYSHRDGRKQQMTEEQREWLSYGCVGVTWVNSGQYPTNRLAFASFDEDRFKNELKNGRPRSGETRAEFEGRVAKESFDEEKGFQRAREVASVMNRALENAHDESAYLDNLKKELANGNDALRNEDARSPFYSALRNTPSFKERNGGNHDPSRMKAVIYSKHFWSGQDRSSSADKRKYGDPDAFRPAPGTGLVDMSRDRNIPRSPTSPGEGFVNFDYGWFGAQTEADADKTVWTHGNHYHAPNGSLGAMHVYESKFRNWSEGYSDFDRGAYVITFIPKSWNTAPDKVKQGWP
ASSAY INFO: cell-based or functional assay
No end group written: not given here.
The entries below are paired with their reported Log2(signal), array MTG labeling with N-(Biotinyl)cadaverine.
PROPERTY LABEL: Log2(signal), array MTG labeling with N-(Biotinyl)cadaverine

BINDER	MEASUREMENT
NYVLQ (also: flanked by G:S (3:1) linkers on peptide array) [NYVLQ (SEQ ID NO: 12)]	15.3 Log2(signal)
NFVLQ (not fully specified; also: flanked by G:S (3:1) linkers on peptide array) [NFVLQ (SEQ ID NO: 25)]	15.2 Log2(signal)
EFVAQ (also: flanked by G:S (3:1) linkers on peptide array) [EFVAQ (SEQ ID NO: 21)]	15.2 Log2(signal)
PYALQ (also: flanked by G:S (3:1) linkers on peptide array) [PYALQ (SEQ ID NO: 5)]	15.4 Log2(signal)
PYVLQ (also: flanked by G:S (3:1) linkers on peptide array) [PYVLQ (SEQ ID NO: 16)]	15.3 Log2(signal)
RYALQ (not fully specified) [RYALQ (SEQ ID NO: 14)]	15.3 Log2(signal)
FYALQ (also: flanked by G:S (3:1) linkers on peptide array) [FYALQ (SEQ ID NO: 10)]	15.4 Log2(signal)
EFALQ (also: flanked by G:S (3:1) linkers on peptide array) [EFALQ (SEQ ID NO: 23)]	15.2 Log2(signal)
SYALQ (not fully specified) [SYALQ (SEQ ID NO: 18)]	15.2 Log2(signal)
NYFLQ (also: flanked by G:S (3:1) linkers on peptide array) [NYFLQ (SEQ ID NO: 9)]	15.4 Log2(signal)
EYVAQ (also: flanked by G:S (3:1) linkers on peptide array) [EYVAQ (SEQ ID NO: 13)]	15.3 Log2(signal)
